Target desc: Tumor necrosis factor (Homo sapiens)
Sequence (P01375 whole entry): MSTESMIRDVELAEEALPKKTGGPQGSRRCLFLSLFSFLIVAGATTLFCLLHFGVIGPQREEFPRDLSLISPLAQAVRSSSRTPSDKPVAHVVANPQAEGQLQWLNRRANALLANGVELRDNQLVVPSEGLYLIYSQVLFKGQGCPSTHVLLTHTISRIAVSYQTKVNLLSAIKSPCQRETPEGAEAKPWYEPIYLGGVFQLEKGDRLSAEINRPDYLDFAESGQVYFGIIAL
Assay comment: analog potency on TNFa NF-kB signaling – cell-based, revised, SAR follow-up (AID 2337)
Assay type: functional
Calls of active or inactive are those of the source. No stated cut-off is given here; in the data, actives have a measured IC50 and inactives only a lower limit.
The following compounds are listed with their measured IC50 values.

{"Compound": "O=C(Nc1sc2c(c1C(=O)O)CCCC2)c1ccc(Br)cc1", "IC50": "2.25 µM (active)"}
{"Compound": "c1ccc(CNc2ncnc3scc(-c4cccs4)c23)nc1", "IC50": "3.22 µM (active)"}

Please give the documented IC50 of `COc1ccc(F)c(-c2nc(CN3CCN(c4ncnc5ccccc45)CC3)c(C)o2)c1`
3.8 µM (active)

Give the reported IC50 for this compound. CC1CCc2c(sc(NC(=O)c3ccc(Br)cc3)c2C(=O)O)C1 (centres undefined)
6.82 µM (active)
